test: in vitro; settings: African green monkey, uninfected quiescent Vero-B cells
result type: CC50 at 4 days (µM)
Answers are plain numbers, in µM.

These solved cases illustrate the format of a correct answer.
compound: CCc1cccc(NC(C(=O)c2c[nH]c3ccccc23)c2ccccc2)c1 (centres unmarked)
output unit: µM
CC50 at 4 days: 17

compound: COc1cncc(NC(C(=O)c2c[nH]c3cc(F)ccc23)c2ccccc2)c1 (centres unmarked)
output unit: µM
CC50 at 4 days: 15

compound: COc1cc(NC(C(=O)c2c[nH]c3c(C)cccc23)c2ccccc2)cc(OCCO)c1 (centres unmarked)
output unit: µM
CC50 at 4 days: 14

Moving on to the next compound.
Query block: Consider the compound COc1cccc(NC(C(=O)c2c[nH]c3c(Cl)cccc23)c2ccc(C#N)cc2)c1 (centres unmarked) . State its measured CC50 at 4 days.
Result block: 11
